- system_under_test: Dipeptidyl peptidase 7 (DPP7) (Homo sapiens, UniProt Q9UHL4)
- Construct: purchased R&D Systems 3438-SE
- test_summary: Serine protease inhibition: DPP7
- Format: biochemical, mammalian
pIC50: −log10 of the molar value.
observation_type: pIC50

• CC(=O)N[C@@H](CC(C)C)C(=O)N[C@@H](CC(C)C)C(=O)N[C@H](C=O)CCCNC(=N)N [Leupeptin, leupeptin, reference compound] = 3.30 to 4.82

###

- system_under_test: OXA-48 (Klebsiella pneumoniae, UniProt Q6XEC0)
- Sequence (Q6XEC0 23-265 limits assumed): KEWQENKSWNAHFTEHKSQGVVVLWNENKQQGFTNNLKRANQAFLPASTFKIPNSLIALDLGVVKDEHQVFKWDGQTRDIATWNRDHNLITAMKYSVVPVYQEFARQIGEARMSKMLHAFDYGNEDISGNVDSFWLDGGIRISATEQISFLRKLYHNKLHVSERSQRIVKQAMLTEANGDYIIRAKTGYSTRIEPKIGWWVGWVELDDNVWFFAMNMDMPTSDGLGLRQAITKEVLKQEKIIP
- test_summary: Inhibition of nitrocefin cleavage by purified OXA-48
- Assay type: biochemical
- condition_description: nitrocefin reporter substrate, purified enzyme; read-out: Ki (OXA-48, NCF)
pKi: −log10 of the molar value.
The entries below come with measured pKi values attached.
observation_type: pKi

- [N-]=[N+]=NCC(=O)N[C@H]1Cc2cccc(C(=O)O)c2OB1O [Compound 8]: > 9.00
- O=CN[C@H]1Cc2cccc(C(=O)O)c2OB1O [Compound 4]: 8.00 to 9.00
- O=C(Cc1cccs1)N[C@H]1Cc2cccc(C(=O)O)c2OB1O [CPD A, reference compound]: > 9.00
- CSCC(=O)N[C@H]1Cc2cccc(C(=O)O)c2OB1O [Compound 13]: > 9.00
- O=C(N[C@H]1Cc2cccc(C(=O)O)c2OB1O)c1cncs1 [Compound 15]: > 9.00
- O=C(N[C@H]1Cc2cccc(C(=O)O)c2OB1O)c1cccnc1 [Compound 12]: > 9.00
- NC(=O)CC(=O)N[C@H]1Cc2cccc(C(=O)O)c2OB1O [Compound 16]: 8.00 to 9.00
- CSC(=O)N[C@H]1Cc2cccc(C(=O)O)c2OB1O [Compound 11]: > 9.00
- O=C(CSC(F)F)N[C@H]1Cc2cccc(C(=O)O)c2OB1O [Compound 3]: > 9.00
- NC(=O)C(=O)N[C@H]1Cc2cccc(C(=O)O)c2OB1O [Compound 17]: 8.00 to 9.00
